- Study System: Gal6S(b1-4)Glc
- Protocol: glycan array binding signal (z-score within array); higher = stronger binding
- Test Conditions: glycan notation: IUPAC condensed, linker removed
This is one part of a sample in which the strongest signals are shown more often than they occur.
Observed Property: glycan array binding signal (z-score)
Give the figure by itself; no unit, no explanation.

Worked set:
| Binder | Observed Property | Recorded Measurement |
| --- | --- | --- |
| Drgal1 (Danio rerio) (protein) MAGVLIQNMSFKVGQTLTITGVPKPDSTNFAINIGHSPEDIALHMNPRFDAHGDQCTIVCNSFQSGSWCEEHRDDNFPFIQDKEFQIKITFTNEEFLVTLPDGSEIHFPNRQGSEKYKYMYFEGEVRIQGVEIK | glycan array binding signal (z-score) | 0.281 |
| rCnSL-proA (Clitocybe nebularis) (protein) AAFFSLVVLLALLPFGIHASALPSTELTPRVNPNLPGPNDVFVGFRGTNNIVGAIYEKDGIKDTPLNNGADAEMGPGSYITDGLFTARIFASGSAGNNPGTTATVCKIYASGVQWRGAPKGYIPVAYFGNGPTAEQRRQTYLRTLGLPGTAIRFGNLNTNPGQGPTAPRQMVVPPGPLRSLLKASCFPAADTRLPQTLHYFEKRVDWNIITAADSQTWGH | glycan array binding signal (z-score) | -0.662 |

May I ask what glycan array binding signal (z-score) has been recorded for LSECtin (Homo sapiens), Q6UXB4 (protein) MDTTRYSKWGGSSEEVPGGPWGRWVHWSRRPLFLALAVLVTTVLWAVILSILLSKASTERAALLDGHDLLRTNASKQTAALGALKEEVGDCHSCCSGTQAQLQTTRAELGEAQAKLMEQESALRELRERVTQGLAEAGRGREDVRTELFRALEAVRLQNNSCEPCPTSWLSFEGSCYFFSVPKTTWAAAQDHCADASAHLVIVGGLDEQGFLTRNTRGRGYWLGLRAVRHLGKVQGYQWVDGVSLSFSHWNQGEPNDAWGRENCVMMLHTGLWNDAPCDSEKDGWICEKRHNC ?
-0.141
